Test system: CD16A
Assay name: Spot phage ELISA, CD16A
Format: binding, human
Settings: spot phage ELISA signal-to-noise on CD16A
Where no end group is shown, it is not given here.
Listed next: entries and their corresponding S/N.
// return a plain number; no unit text

Prompt: Value lookup for S/N; key = GCDDILRACKQDSDCLAGCVCEEETLCG (disulfide (positions not given here)) [CD16A EETI-II 6]
Completion: 19.9

Prompt: Now give it for GCQYIETECKQDSDCLAGCVCWVSPWCG (disulfide (positions not given here)) [CD16A EETI-II 44] too.
Completion: 20.5

Prompt: Now give it for GCEWMAIPCKQDSDCLAGCVCWESPYCG (disulfide (positions not given here)) [CD16A EETI-II 40] too.
Completion: 20.1
